Reported IC50 against DNA polymerase beta (Homo sapiens), gathered from multiple publications, appears below.
endpoint_name: IC50

[[record]]
molecule = "CCCCCCCCCCCCC(=O)/C=C1\\[C@@H](O)[C@@H](C(=O)OC)[C@H](CC)N1Cc1ccccc1"
endpoint_name = "IC50"
result = "27.1 µM"

[[record]]
molecule = "CCCCCCCCCCCCC(=O)/C=C1\\[C@H](O)[C@@H](C(=O)OC)[C@H](CC)N1CCc1ccccc1"
endpoint_name = "IC50"
result = "22 µM"

[[record]]
molecule = "Oc1cc2cc(c1O)Oc1ccc(cc1)CCc1cccc(O)c1Oc1cccc(c1)CC2O (stereo not given)"
endpoint_name = "IC50"
result = "14.4 µM"

[[record]]
molecule = "O=C(O)c1ccc(F)cc1NS(=O)(=O)c1cccc(-c2cnn(Cc3ccc4ccccc4c3)c2)c1"
endpoint_name = "IC50"
result = "> 20 µM"

[[record]]
molecule = "O=c1ccc2ccc(Cc3c(O)c4cc(O)c(O)cc4oc3=O)cc2o1"
endpoint_name = "IC50"
result = "94.8 µM"


----------
Reported pIC50 against DNA polymerase beta (Homo sapiens, UniProt P06746), gathered from multiple publications, appears below.
pIC50: −log10 of the molar value.
endpoint_name: pIC50

[[record]]
molecule = "C=C1CCC[C@H]2[C@](C)(CC3=C(O)C(=O)C=C(OC)C3=O)[C@@H](C)CC[C@]12C"
limit_qualifier = "="
numeric_readout = 4.34

[[record]]
molecule = "Nc1nc(=O)c2ncn(CCOCP(=O)(O)OP(=O)(O)O)c2[nH]1"
limit_qualifier = "="
numeric_readout = 4.87

[[record]]
molecule = "Oc1cccc(CCc2ccc(Oc3cc(CCc4cccc(O)c4)cc(O)c3O)cc2)c1"
limit_qualifier = "="
numeric_readout = 4.84

[[record]]
molecule = "C=CC[C@@]12C=C(O)C(=O)[C@](OC)([C@H](c3ccc4c(c3)OCO4)[C@H]1C)[C@@H]2O"
limit_qualifier = "="
numeric_readout = 4.67

[[record]]
molecule = "O=C(O)c1ccc2c(c1)nc(-c1ccc(OC(c3ccccc3)c3cccnc3)cc1F)n2C1CCCCC1 (stereo not drawn)"
limit_qualifier = "<"
numeric_readout = 5.00

[[record]]
molecule = "C[C@@]1(O)[C@H](O)[C@@H](COP(=O)(O)OP(=O)(O)OP(=O)(O)O)O[C@H]1c1ccc2c(N)ncnn12"
limit_qualifier = "<"
numeric_readout = 4.00

[[record]]
molecule = "O=C(O)c1ccccc1NS(=O)(=O)c1cccc(-c2cnn(Cc3ccccc3)c2)c1"
limit_qualifier = "<"
numeric_readout = 4.70

[[record]]
molecule = "C=C1C(=O)O[C@@H](CCCCCCCCCCCCC)[C@@H]1C(=O)O"
limit_qualifier = "="
numeric_readout = 5.13

[[record]]
molecule = "CN(C)C(=O)C(=O)N(C)[C@H]1CCCCn2c1nc(C(=O)NCc1ccc(F)cc1)c(O)c2=O"
limit_qualifier = "<"
numeric_readout = 5.00

[[record]]
molecule = "C=CC[C@@]12C=C(O)C(=O)[C@](O)([C@H](c3ccc4c(c3)OCO4)[C@H]1C)[C@@H]2O"
limit_qualifier = "<"
numeric_readout = 4.30

[[record]]
molecule = "CC1(C)CC[C@]2(C(=O)O)CC=C3[C@]4(C)CC[C@H]5C(C)(C)[C@@H](OC(=O)c6ccc(O)cc6)C[C@@H](O)[C@]5(C)[C@H]4CC[C@@]3(C)[C@H]2C1"
limit_qualifier = "="
numeric_readout = 5.66

[[record]]
molecule = "C[C@@]1(F)[C@H](O)[C@@H](COP(=O)(O)OP(=O)(O)OP(=O)(O)O)O[C@H]1n1ccc(=O)[nH]c1=O"
limit_qualifier = "<"
numeric_readout = 3.00

[[record]]
molecule = "CCCCCCCCCCCCCCCCC(=O)/C=C/C(=O)CC(=O)OC"
limit_qualifier = "="
numeric_readout = 5.06

[[record]]
molecule = "CC(=O)N1c2ccccc2NC2=C(C(=O)CC(C)(C)C2)C1c1ccc(Cl)cc1Cl (stereo not drawn)"
limit_qualifier = "<"
numeric_readout = 4.00

[[record]]
molecule = "CC(=O)OC[C@@]1(C)[C@@H]2CC[C@]3(C)[C@H](CC=C4[C@@H]5CC(C)(C)CC[C@]5(C(=O)O)[C@@H](OC(C)=O)C[C@]43C)[C@@]2(C)CC[C@@H]1OC(C)=O"
limit_qualifier = "="
numeric_readout = 4.89

[[record]]
molecule = "C=CC[C@]12C[C@@H](OC)C(=O)C(OC)=C1O[C@H](c1ccc3c(c1)OCO3)[C@H]2C"
limit_qualifier = "="
numeric_readout = 4.91

[[record]]
molecule = "C=CC[C@@]12C=C(OC)C(=O)[C@](O)([C@H](c3ccc4c(c3)OCO4)[C@H]1C)[C@@H]2O"
limit_qualifier = "="
numeric_readout = 4.82

[[record]]
molecule = "Oc1ccc2c(c1)CCc1ccc(cc1)Oc1cc(cc(-c3cc4c(cc3O)CCc3ccc(cc3)Oc3cc(ccc3O)CCc3ccc-4c(O)c3)c1O)CCc1ccc-2c(O)c1"
limit_qualifier = "="
numeric_readout = 5.29

